The reported numbers originate from ChEMBL document CHEMBL1157677.

Measured pIC50, listed per entry for reference.
# Tested System: Transient receptor potential cation channel subfamily V member 1 (Rattus norvegicus)
# Sequence (O35433 whole entry): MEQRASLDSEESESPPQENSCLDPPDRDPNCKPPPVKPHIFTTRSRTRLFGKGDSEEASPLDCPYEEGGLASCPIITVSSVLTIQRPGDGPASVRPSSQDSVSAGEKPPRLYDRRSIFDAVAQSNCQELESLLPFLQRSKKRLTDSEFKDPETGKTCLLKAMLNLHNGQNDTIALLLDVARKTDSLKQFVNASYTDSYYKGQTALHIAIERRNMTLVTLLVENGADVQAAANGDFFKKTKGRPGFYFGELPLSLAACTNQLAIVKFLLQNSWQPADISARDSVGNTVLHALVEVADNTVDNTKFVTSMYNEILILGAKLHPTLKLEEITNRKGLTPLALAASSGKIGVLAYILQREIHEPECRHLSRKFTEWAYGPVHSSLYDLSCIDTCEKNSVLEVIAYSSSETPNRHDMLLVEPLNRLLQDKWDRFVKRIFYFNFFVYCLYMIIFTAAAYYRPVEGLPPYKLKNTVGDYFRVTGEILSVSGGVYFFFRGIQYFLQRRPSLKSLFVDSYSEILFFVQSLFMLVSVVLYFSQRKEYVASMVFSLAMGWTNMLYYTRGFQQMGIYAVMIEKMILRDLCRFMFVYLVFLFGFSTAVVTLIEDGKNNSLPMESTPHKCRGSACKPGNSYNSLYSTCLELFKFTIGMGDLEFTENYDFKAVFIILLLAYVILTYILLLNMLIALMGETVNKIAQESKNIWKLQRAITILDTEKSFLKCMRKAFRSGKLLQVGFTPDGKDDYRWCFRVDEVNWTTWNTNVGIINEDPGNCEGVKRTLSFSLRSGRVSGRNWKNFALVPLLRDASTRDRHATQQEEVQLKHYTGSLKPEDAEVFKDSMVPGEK
# Method: Antagonist activity at TRPV1 in Sprague-Dawley rat DRG neuron assessed as reduction of capsaicin-stimulated intracellular 45Ca2+ influx by scintillation counting
Lab note: report pIC50 as minus log10 of the concentration in molar units, number only.

- Compound String: "C[C@@H](NC(=S)NCc1ccc(C(C)(C)C)cc1)c1ccc(NS(C)(=O)=O)cc1"
  pIC50: 7.30
- Compound String: "CC[Si](CC)(CC)c1ccc(CNC(=S)N[C@H](C)c2ccc(NS(C)(=O)=O)cc2)cc1"
  pIC50: 5.82

Challenge: I'd like to know its pIC50. The compound in question is C[C@@H](NC(=S)NCc1ccc([Si](C)(C)C)cc1)c1ccc(NS(C)(=O)=O)cc1
Response given: 6.68

Challenge: Would you mind doing CC[Si](C)(C)c1ccc(CNC(=S)N[C@H](C)c2ccc(NS(C)(=O)=O)cc2)cc1 as well?
Response given: 6.17

Challenge: Would you mind doing CC[Si](C)(C)c1ccc(CNC(=S)NCc2ccc(NS(C)(=O)=O)cc2)cc1 as well?
Response given: 5.92
